Each recorded value in this set is attributed to paper PMC5540273.

- System: CDK7
- protocolConditions: concentration: 1 μM, replicates: in singlicate; n = 1;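 further: KINOMEscan kinase panel screen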
quantity: %Inh (%)
Express your answer in %, writing the number without its unit.

Using known records, supply %Inh for Cc1ccc(O)cc1Nc1cc(C(F)(F)F)nc2ccc(-c3ccncc3)cc12
0

Using known records, supply %Inh for CC(C)N1CCC(n2cnc(-c3ccc(F)cc3)c2-c2ccnc(N)n2)CC1
0

Using known records, supply %Inh for COC(=O)c1c(-c2ccccc2)c2cc(Cl)ccc2c(=O)n1Cc1ccc(S(C)(=O)=O)cc1
10

Using known records, supply %Inh for COc1cc2ncnc(Nc3ccc(OCc4ccccc4Br)c(Cl)c3)c2cc1OC.Cl
0

Using known records, supply %Inh for Cn1cc(-c2ccc3c(c2)CCN3C(=O)Cc2cccc(C(F)(F)F)c2)c2c(N)ncnc21
0

Using known records, supply %Inh for Fc1ccc(Nc2nccc(-c3c(-c4ccc(Cl)cc4)nn4ncccc34)n2)cc1F
42

Using known records, supply %Inh for Nc1nc(-c2ccc3c(N)n[nH]c3c2)cc(N2CCC[C@@H](C(=O)Nc3ccccc3)C2)n1.O=C(O)C(F)(F)F.O=C(O)C(F)(F)F
0

Using known records, supply %Inh for Cl.c1ccc(Cn2ncc3cc(Nc4ncnc5ccccc45)ccc32)cc1
1

Using known records, supply %Inh for CN1CCC(n2cnc(-c3ccc(F)cc3)c2-c2ccnc(NC3CCNCC3)n2)CC1
30

Using known records, supply %Inh for OCCOCCn1ccc2ncnc(Nc3ccc(Oc4cccc(Cl)c4)c(Cl)c3)c21
0

Using known records, supply %Inh for O=C(NCCCN1CCCC1=O)c1cnc(NCc2cc(Cl)ccc2Cl)nc1NC1CCNCC1
33

Using known records, supply %Inh for O=C(Nc1ccccc1)Nc1ccc(Oc2ccc3nccn3n2)cc1
0

Using known records, supply %Inh for O=C(Nc1ccccc1F)NC1CCN(c2ccnc(Nc3ccc(F)cc3)n2)C1 (centres unmarked)
0

Using known records, supply %Inh for CN1c2ccc(-c3ccc(C(=O)NCCO)cc3)cc2-c2[nH]ncc2S1(=O)=O
32

Using known records, supply %Inh for N#Cc1ccc(Oc2ccc(Nc3ncnc4cc[nH]c34)cc2Cl)cc1
27

Using known records, supply %Inh for FC(F)(F)c1ccc(-c2nn3ncccc3c2-c2ccnc(Nc3cccc(C(F)(F)F)c3)n2)cc1
0

Using known records, supply %Inh for CC(C)(C)OC(=O)NC1CCCN(c2cc(-c3ccc4c(N)n[nH]c4c3)nc(N)n2)C1 (centres unmarked)
0

----------
- System: KIT-autoinhibited
- protocolConditions: concentration: 1 μM, replicates: in singlicate; n = 1
quantity: %Inh (%)
Express your answer in %, writing the number without its unit.

Report the value of %Inh obtained on KIT-autoinhibited for Fc1cccc(COc2ccc(Nc3ncnc4cc[nH]c34)cc2Cl)c1 .
6

Report the value of %Inh obtained on KIT-autoinhibited for Fc1ccc(Nc2nccc(-c3c(-c4ccc(Cl)cc4)nn4ncccc34)n2)cc1F .
12

Report the value of %Inh obtained on KIT-autoinhibited for OCCOCCn1ccc2ncnc(Nc3ccc(Oc4cccc(Cl)c4)c(Cl)c3)c21 .
0

Report the value of %Inh obtained on KIT-autoinhibited for COc1ccc(-c2oc3ncnc(N)c3c2-c2ccc(OC)cc2)cc1 .
29

Report the value of %Inh obtained on KIT-autoinhibited for O=c1cc(N2CCOCC2)nc2n(Cc3cccc(Cl)c3)ccn12 .
4

Report the value of %Inh obtained on KIT-autoinhibited for O=C(Nc1ccccc1F)NC1CCN(c2ccnc(Nc3ccc(F)cc3)n2)C1 (stereo not drawn) .
0

Report the value of %Inh obtained on KIT-autoinhibited for Cc1cccc(-c2nc(Nc3ccc4[nH]nnc4c3)c3ccccc3n2)n1 .
0

Report the value of %Inh obtained on KIT-autoinhibited for COc1ccc(NC(=O)Nc2ccc(C)c(-c3ccc(C(=O)Nc4ccncc4)cc3)c2)cc1 .
0

Report the value of %Inh obtained on KIT-autoinhibited for COC(=O)c1cccc(NC(=O)NCCNc2ccnc(Nc3ccc(F)cc3)n2)c1 .
0

----------
- Test system: OSR1
- Construct: gene OXSR1
- protocolConditions: concentration: 1 μM, replicates: in singlicate; n = 1
Kindly state %Inh for each of the entries shown.
Express your answer in %, writing the number without its unit.

Using known records, supply %Inh for Cc1cc(N2CCC(NS(=O)(=O)c3ccc(F)cc3)CC2)nc(Nc2cccc(C#N)c2)n1.O=C(O)C(F)(F)F [GSK1653537]
6

Using known records, supply %Inh for O=C(Nc1ccccc1)Nc1ccc(Oc2ccc3nccn3n2)cc1
0

Using known records, supply %Inh for COc1cc2c(Nc3cccc(NC(=O)c4ccccc4)c3)ncnc2cc1OCCCN1CCOCC1 [GSK223810]
16

Using known records, supply %Inh for CN1CCC(n2cnc(-c3ccc(F)cc3)c2-c2ccnc(NC3CCNCC3)n2)CC1 [SB-229482]
0

----------
- Test system: FGFR1
- protocolConditions: concentration: 1 μM, replicates: in singlicate; n = 1
Kindly state %Inh for each of the entries shown.
Express your answer in %, writing the number without its unit.

Using known records, supply %Inh for CCn1c(-c2ccncc2)nc2cnccc21
0

Using known records, supply %Inh for Cn1cc(-c2ccc3c(c2)CCN3C(=O)Cc2cccc(C(F)(F)F)c2)c2c(N)ncnc21
20

Using known records, supply %Inh for Fc1ccc(-c2ncn(CCCNCc3ccccc3)c2-c2ccncc2)cc1
0

Using known records, supply %Inh for O=C(Nc1ccccc1)Nc1ccc(Oc2ccc3nccn3n2)cc1
0

Using known records, supply %Inh for Clc1ccc(-c2cc(-c3c[nH]nc3-c3ccccn3)ccn2)cc1
0

----------
- Test system: ZAK
- protocolConditions: concentration: 1 μM, replicates: in singlicate; n = 1
quantity: %Inh (%)
Express your answer in %, writing the number without its unit.

Using known records, supply %Inh for Cc1cccc(-c2nc(Nc3ccc4[nH]nnc4c3)c3ccccc3n2)n1
0

Using known records, supply %Inh for CC(C)(C)OC(=O)NC1CCCN(c2cc(-c3ccc4c(N)n[nH]c4c3)nc(N)n2)C1 (stereo not drawn)
0

Using known records, supply %Inh for Nc1nccc2scc(-c3ccc4c(c3)CCN4C(=O)Cc3cc(F)ccc3F)c12
9

Using known records, supply %Inh for O=C(NCCCN1CCCC1=O)c1cnc(NCc2cc(Cl)ccc2Cl)nc1NC1CCNCC1
0

Using known records, supply %Inh for c1ccc(-c2ccc3c(-c4ccnc(Nc5ccc6c(c5)OCCO6)n4)cnn3n2)cc1
10

Using known records, supply %Inh for CCC(CC)(CC)n1cnc2c(N)ncnc21
0

Using known records, supply %Inh for O=C(CCO)NCCn1ccc2ncnc(Nc3ccc(Oc4cccc(C(F)(F)F)c4)c(Cl)c3)c21
0

Using known records, supply %Inh for CSc1ccc(NC2=C(c3ccccc3Cl)C(=O)NC2=O)cc1
20

Using known records, supply %Inh for Cc1ccc(NC(=O)c2cccc(C#N)c2)cc1-c1ccc(C(=O)Nc2ccncc2)cc1
12

----------
- Test system: MLK3
- protocolConditions: concentration: 1 μM, replicates: in singlicate; n = 1
Kindly state %Inh for each of the entries shown.
Express your answer in %, writing the number without its unit.

Using known records, supply %Inh for CC(C)(C)OC(=O)NC1CCCN(c2cc(-c3ccc4c(N)n[nH]c4c3)nc(N)n2)C1 (centres unmarked)
0

Using known records, supply %Inh for COc1ccc(-c2oc3ncnc(N)c3c2-c2ccc(OC)cc2)cc1
0

Using known records, supply %Inh for Fc1ccc(-c2ncn(CCCNCc3ccccc3)c2-c2ccncc2)cc1
0

Using known records, supply %Inh for CNc1nccc(-c2c(-c3ccc(F)cc3)ncn2CCCN2CCOCC2)n1
0

Using known records, supply %Inh for Nc1nccc2scc(-c3ccc4c(c3)CCN4C(=O)Cc3cc(F)ccc3F)c12
15

----------
- Tested on: FGFR3
- protocolConditions: concentration: 1 μM, replicates: in singlicate; n = 1
Is %Inh at least 1%? Then true. If not, false.

%Inh >= 1% for CS(=O)(=O)CCNCc1nc(-c2ccc3ncnc(Nc4ccc(OCc5cccc(F)c5)c(Cl)c4)c3c2)cs1.Cl ?
false

%Inh >= 1% for CSc1nn2c(=O)cc(N3CCOCC3)nc2n1Cc1cccc(Cl)c1Cl ?
true

%Inh >= 1% for Fc1cccc(COc2ccc(Nc3ncnc4nn5ccccc5c34)cc2Cl)c1 ?
true

%Inh >= 1% for COc1cc2c(Nc3cccc(NC(=O)c4ccccc4)c3)ncnc2cc1OCCCN1CCOCC1 ?
true

%Inh >= 1% for CC(=O)Nc1n[nH]c2ncc(-c3ccccc3)cc12 ?
true

%Inh >= 1% for CNc1nccc(-c2c(-c3ccc(F)cc3)ncn2CCCN2CCOCC2)n1 ?
false

%Inh >= 1% for COc1ccc(NC(=O)c2ccc(-c3cc(-c4nnc(C)o4)ccc3C)cc2)cc1 ?
true

%Inh >= 1% for Cl.c1ccc(Cn2ccc3cc(Nc4ncnc5ccccc45)ccc32)cc1 ?
true

%Inh >= 1% for CNc1nccc(-c2c(-c3ccc(F)cc3)ncn2C2CCN(C)CC2)n1 ?
false

%Inh >= 1% for Cn1ccc2ncnc(Oc3ccc(NC(=O)Nc4cccnc4)c(Cl)c3)c21 ?
false
